- Target: T1, cynoSIRPα (EGM_02252), Extracellular Domain + His-Tag (cynomolgus monkey)
- T1 construct: also called CySIRPα EGM_02252; not shown: His-Tag
- T1 chain: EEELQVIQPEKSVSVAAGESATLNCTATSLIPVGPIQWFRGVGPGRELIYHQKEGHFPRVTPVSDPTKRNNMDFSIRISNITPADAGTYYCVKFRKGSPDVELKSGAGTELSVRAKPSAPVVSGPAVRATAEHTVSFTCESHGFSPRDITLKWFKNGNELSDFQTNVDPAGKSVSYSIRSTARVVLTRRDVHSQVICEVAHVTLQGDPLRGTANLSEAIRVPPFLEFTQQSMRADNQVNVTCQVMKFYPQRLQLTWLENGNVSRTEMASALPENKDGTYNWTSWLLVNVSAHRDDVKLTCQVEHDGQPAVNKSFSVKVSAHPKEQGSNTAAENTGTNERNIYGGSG
- Assay: SPR, antibody captured on Protein A/G, ECD-His analyte, steady-state fit
Measure: Kd (nM)
Number in nM, nothing else.

Sample answers from the record:
1) Antibody A3 (antibody, human IgG1, kappa, L234A L235A, V domains shown) VH: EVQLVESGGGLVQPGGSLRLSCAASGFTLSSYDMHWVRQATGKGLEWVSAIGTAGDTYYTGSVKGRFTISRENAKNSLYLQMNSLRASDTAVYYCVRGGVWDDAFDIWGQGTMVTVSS VL: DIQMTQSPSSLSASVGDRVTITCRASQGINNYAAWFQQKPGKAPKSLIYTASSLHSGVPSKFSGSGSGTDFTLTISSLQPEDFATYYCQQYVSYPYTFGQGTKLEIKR; 560
2) Antibody A15 (antibody, human IgG1, kappa, L234A L235A, V domains shown) VH: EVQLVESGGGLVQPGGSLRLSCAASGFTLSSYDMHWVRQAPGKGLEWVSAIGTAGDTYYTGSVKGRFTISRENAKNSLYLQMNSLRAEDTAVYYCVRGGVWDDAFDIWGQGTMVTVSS VL: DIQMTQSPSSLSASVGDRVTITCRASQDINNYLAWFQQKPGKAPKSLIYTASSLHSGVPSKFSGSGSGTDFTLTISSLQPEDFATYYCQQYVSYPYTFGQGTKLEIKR; 224
3) Antibody A6 (antibody, human IgG1, kappa, L234A L235A, V domains shown) VH: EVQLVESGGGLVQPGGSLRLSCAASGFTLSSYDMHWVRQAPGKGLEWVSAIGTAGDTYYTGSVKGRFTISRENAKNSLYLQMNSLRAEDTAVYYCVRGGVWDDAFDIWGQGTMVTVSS VL: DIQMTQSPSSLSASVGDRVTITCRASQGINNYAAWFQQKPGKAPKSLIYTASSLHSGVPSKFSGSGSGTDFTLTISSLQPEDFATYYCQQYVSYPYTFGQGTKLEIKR; 521
4) Antibody A5 (antibody, human IgG1, kappa, L234A L235A, V domains shown) VH: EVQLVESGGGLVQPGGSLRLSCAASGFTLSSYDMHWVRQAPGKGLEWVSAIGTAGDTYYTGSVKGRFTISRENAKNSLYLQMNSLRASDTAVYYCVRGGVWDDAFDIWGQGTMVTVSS VL: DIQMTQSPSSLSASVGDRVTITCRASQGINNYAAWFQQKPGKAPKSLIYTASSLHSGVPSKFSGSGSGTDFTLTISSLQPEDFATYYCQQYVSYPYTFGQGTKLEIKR; 517
5) Antibody A1 (antibody, human IgG1, kappa, L234A L235A, V domains shown) VH: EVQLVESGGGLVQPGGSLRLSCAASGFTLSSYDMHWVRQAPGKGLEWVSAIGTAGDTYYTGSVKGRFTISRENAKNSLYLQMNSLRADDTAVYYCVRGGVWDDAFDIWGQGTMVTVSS VL: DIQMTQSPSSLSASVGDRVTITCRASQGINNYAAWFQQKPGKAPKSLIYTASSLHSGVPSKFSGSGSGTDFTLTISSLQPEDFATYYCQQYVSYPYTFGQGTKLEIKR; 523
6) Antibody A14 (antibody, human IgG1, kappa, L234A L235A, V domains shown) VH: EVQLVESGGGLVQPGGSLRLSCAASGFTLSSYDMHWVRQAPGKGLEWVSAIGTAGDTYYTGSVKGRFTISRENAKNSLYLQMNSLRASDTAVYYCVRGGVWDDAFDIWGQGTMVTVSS VL: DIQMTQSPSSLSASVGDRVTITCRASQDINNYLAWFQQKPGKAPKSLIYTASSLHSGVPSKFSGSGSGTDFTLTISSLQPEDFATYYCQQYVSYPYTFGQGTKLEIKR; 222

Note: attention shifts to another entry.
Task: State the recorded Kd for this entry: Antibody A7 (antibody, human IgG1, kappa, L234A L235A, V domains shown) VH: EVQLVESGGGLVQPGGSLRLSCAASGFTLSSYDMHWVRQATGKGLEWVSAIGTAGDTYYTGSVKGRFTISRENAKNSLYLQMNSLRAGDTAVYYCVRGGVWDDAFDIWGQGTMVTVSS VL: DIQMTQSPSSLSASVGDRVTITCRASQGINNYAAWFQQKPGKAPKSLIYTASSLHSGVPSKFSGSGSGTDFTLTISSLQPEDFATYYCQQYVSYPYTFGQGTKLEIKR
Result: 588
